- System: SH-SY5Y cells; note: reference of the scale not given here
- Conditions: PKIS2 primary screening, DQ Red BSA spot count
Value Kind: DQ Spot

INSERT INTO assay_data (compound, value_kind, value_measured) VALUES
  ('NS(=O)(=O)c1cccc(-c2ccc3nccc(-c4cccc(S(N)(=O)=O)c4)c3c2)c1 [UNC10225379A]', 'DQ Spot', 88.03),
  ('Cl.c1ccc(Cn2cnc3cc(Nc4ncnc5ccccc45)ccc32)cc1 [UNC10225378A]', 'DQ Spot', 119.25),
  ('COC(=O)Nc1nc2ccc(Oc3ccc(NC(=O)Nc4cccc(SC)c4)cc3)cc2[nH]1 [GW697999]', 'DQ Spot', 122.82),
  ('O=C(NCCNc1ccnc(Nc2ccc(F)cc2)n1)Nc1ccc2c(c1)OCO2 [GSK1379882]', 'DQ Spot', 79.77),
  ('CN(C)CCOc1ccc(-c2cc(-c3c[nH]nc3-c3ccccn3)ccn2)cc1 [UNC10225226A]', 'DQ Spot', 114.20),
  ('Fc1ccc(-c2ncn(CCCN3CCOCC3)c2-c2cccnc2)cc1 [UNC10225320A]', 'DQ Spot', 100.66),
  ('CN1CCN(CCNc2nc3ccc(Oc4ccc(NC(=O)Nc5cc(C(F)(F)F)ccc5F)cc4)cc3[nH]2)CC1 [GW768504]', 'DQ Spot', 113.95),
  ('Nc1nc(-c2nccs2)c(-c2ccnc3ccccc23)s1 [UNC10225429A]', 'DQ Spot', 117.25);
